Origin of values: patent US10988456B2

Target: UniProt:P07949
Sequence (P07949 29-1114): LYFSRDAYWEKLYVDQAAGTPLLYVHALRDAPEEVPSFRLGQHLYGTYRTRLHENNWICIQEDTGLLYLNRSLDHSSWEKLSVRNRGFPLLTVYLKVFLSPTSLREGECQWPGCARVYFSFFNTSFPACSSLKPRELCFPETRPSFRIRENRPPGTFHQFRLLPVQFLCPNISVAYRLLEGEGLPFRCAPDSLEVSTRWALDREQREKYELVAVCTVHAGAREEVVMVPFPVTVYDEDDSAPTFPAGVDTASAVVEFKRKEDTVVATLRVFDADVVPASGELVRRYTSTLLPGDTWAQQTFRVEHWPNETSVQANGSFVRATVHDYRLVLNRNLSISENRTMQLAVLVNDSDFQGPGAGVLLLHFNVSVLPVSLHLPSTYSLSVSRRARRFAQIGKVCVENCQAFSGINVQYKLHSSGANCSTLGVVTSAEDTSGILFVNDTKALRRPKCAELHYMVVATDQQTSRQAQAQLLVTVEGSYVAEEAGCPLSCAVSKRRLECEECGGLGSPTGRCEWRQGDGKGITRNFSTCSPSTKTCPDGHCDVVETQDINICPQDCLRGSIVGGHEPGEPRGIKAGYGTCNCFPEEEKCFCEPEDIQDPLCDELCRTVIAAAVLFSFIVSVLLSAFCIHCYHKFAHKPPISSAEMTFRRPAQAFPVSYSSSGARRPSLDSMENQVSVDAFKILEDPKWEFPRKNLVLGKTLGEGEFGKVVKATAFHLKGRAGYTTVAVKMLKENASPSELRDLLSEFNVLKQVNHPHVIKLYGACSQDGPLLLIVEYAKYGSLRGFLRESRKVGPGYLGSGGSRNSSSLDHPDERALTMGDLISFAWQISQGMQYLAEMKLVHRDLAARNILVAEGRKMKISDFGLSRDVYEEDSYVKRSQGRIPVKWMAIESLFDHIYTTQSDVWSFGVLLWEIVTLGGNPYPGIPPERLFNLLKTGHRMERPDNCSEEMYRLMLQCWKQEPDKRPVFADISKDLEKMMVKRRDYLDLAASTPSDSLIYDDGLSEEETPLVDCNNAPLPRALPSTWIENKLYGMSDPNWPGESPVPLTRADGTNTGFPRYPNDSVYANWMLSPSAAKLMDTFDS
Assay: Inhibition of receptor tyrosine kinase activity at molecular level (ELISA, Poly(Glu,Tyr)4:1 substrate phosphorylation)
Type: biochemical
Settings: 10 nM compound; average of two independent experiments
Assign True whenever 10 nM inhibition ratio RET does not fall below 70; assign False whenever it does.

I'd appreciate it if you could say whether "CN1CCN(Cc2ccc(NC(=O)c3ccc(Cl)c(C#Cc4cc(Cl)cnc4N)c3)cc2C(F)(F)F)CC1" has 10 nM inhibition ratio RET at least equal to 70.
True

Same again, this time with "CN1CCN(Cc2ccc(NC(=O)c3cc(F)cc(C#Cc4cccnc4N)c3)cc2C(F)(F)F)CC1"
True

Follow-up item: "CN1CCN(Cc2ccc(NC(=O)c3ccc(Cl)c(C#Cc4cccnc4N)c3)cc2C(F)(F)F)CC1"
True

What about this compound? "CN1CCN(Cc2ccc(NC(=O)c3ccc(Cl)c(C#Cc4cc(CO)cnc4N)c3)cc2C(F)(F)F)CC1"
True

Try this compound too: "CN1CCN(Cc2ccc(NC(=O)c3cccc(C#Cc4cc(NC(=O)C5CC5)cnc4N)c3)cc2C(F)(F)F)CC1"
False

====

Biological target: KDR (Homo sapiens)
Sequence (P35968 20-1356): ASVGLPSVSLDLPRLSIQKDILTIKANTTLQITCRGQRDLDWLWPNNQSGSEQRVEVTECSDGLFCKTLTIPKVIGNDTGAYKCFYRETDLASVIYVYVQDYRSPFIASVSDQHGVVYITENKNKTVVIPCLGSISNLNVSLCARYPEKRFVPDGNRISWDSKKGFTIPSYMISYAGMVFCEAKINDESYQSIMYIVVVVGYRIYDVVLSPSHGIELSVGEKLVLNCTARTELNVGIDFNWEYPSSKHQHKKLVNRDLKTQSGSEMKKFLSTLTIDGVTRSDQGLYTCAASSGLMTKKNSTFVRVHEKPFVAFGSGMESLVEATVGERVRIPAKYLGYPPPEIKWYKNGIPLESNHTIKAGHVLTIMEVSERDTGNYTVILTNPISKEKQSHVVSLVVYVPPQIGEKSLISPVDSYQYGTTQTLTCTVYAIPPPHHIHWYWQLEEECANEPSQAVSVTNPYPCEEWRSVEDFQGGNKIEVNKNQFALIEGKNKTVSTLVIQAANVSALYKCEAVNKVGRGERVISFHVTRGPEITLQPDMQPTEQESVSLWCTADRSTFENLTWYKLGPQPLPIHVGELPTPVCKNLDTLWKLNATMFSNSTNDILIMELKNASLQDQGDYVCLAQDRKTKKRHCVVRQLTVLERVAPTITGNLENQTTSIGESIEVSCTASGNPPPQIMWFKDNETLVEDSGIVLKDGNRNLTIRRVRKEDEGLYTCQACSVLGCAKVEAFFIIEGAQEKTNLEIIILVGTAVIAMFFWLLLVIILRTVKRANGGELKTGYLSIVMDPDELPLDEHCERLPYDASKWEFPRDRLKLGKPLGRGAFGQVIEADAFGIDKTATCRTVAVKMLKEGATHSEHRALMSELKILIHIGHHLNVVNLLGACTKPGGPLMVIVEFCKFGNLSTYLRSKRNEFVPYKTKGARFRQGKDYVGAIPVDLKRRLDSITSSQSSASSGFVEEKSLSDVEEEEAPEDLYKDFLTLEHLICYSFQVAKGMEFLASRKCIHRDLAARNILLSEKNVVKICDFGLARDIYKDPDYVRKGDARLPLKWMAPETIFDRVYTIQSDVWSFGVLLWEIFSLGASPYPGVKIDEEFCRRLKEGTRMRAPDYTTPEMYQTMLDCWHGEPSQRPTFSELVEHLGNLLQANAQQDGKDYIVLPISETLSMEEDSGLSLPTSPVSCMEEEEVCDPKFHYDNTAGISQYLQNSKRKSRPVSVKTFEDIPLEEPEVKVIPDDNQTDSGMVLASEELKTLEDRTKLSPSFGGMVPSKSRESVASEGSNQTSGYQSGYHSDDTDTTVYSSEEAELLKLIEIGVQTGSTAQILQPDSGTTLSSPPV
Test: Inhibition of receptor tyrosine kinase activity at molecular level (ELISA, Poly(Glu,Tyr)4:1 substrate phosphorylation)
Assay type: biochemical
Conditions: 10 nM compound; average of two independent experiments
property name: 10 nM inhibition ratio KDR
Just the number, please, no unit attached.

Reported 10 nM inhibition ratio KDR for "CN1CCN(Cc2ccc(NC(=O)c3cc(C#N)cc(C#Cc4cccnc4N)c3)cc2C(F)(F)F)CC1" : what is it?
34.3

Same for "CN1CCN(Cc2ccc(NC(=O)c3ccc(Cl)c(C#Cc4nccnc4N)c3)cc2C(F)(F)F)CC1"
43.1

Here is the next compound: "Cc1ccc(C(=O)Nc2ccc(CN3CCN(C)CC3)c(C(F)(F)F)c2)cc1C#Cc1cccnc1N"
34.7

Entry "[2H]C([2H])([2H])N1CCN(Cc2ccc(NC(=O)c3ccc(Cl)c(C#Cc4cccnc4N)c3)cc2C(F)(F)F)CC1" please
42.1

Next: "CNCc1cnc(N)c(C#Cc2cc(C(=O)Nc3ccc(CN4CCN(C)CC4)c(C(F)(F)F)c3)ccc2Cl)c1"
35.1

Note, next up: "CNc1cnc(N)c(C#Cc2cc(C(=O)Nc3ccc(CN4CCN(C)CC4)c(C(F)(F)F)c3)ccc2Cl)c1"
32.1

Could you do the same for "CN1CCN(Cc2ccc(NC(=O)c3cc(C#Cc4cccnc4N)cc(C(F)(F)F)c3)cc2C(F)(F)F)CC1" , please?
34.5

Next up: "CN1CCN(Cc2ccc(NC(=O)c3ccc(Cl)c(C#Cc4cc(OCCO)cnc4N)c3)cc2C(F)(F)F)CC1"
24.3

Next: "COc1ccc(C#Cc2cccnc2N)cc1C(=O)Nc1ccc(CN2CCN(C)CC2)c(C(F)(F)F)c1"
15.4

Also need "CN1CCN(Cc2ccc(NC(=O)c3ccc(C#N)c(C#Cc4cccnc4N)c3)cc2C(F)(F)F)CC1" , thanks.
15.2

Thanks! And CNc1cncc(C#Cc2cc(C(=O)Nc3ccc(CN4CCN(C)CC4)c(C(F)(F)F)c3)ccc2C)c1 [Example A34, reference compound] ?
39.5

Next record, please: "CN1CCN(Cc2ccc(NC(=O)c3ccc(F)c(C#Cc4cccnc4N)c3)cc2C(F)(F)F)CC1"
44.3

Also "CN1CCN(Cc2ccc(NC(=O)c3cccc(C#Cc4cccnc4N)c3)cc2C(F)(F)F)CC1" ?
35.2

Next compound up: "CN1CCN(Cc2ccc(NC(=O)c3ccc(Cl)c(C#Cc4cccnc4N)c3)cc2C(F)(F)F)CC1"
45.1

Now consider CN1CCN(Cc2ccc(NC(=O)c3ccc(Cl)c(C#Cc4cccnc4F)c3)cc2C(F)(F)F)CC1 [HuFGFR150, reference compound] .
32.3

Again, but for "CN1CCN(Cc2ccc(NC(=O)c3cc(C#Cc4cccnc4N)ccc3F)cc2C(F)(F)F)CC1"
30.4

And the next one, "CN1CCN(Cc2ccc(NC(=O)c3ccc(Cl)c(C#Cc4cc(C#N)cnc4N)c3)cc2C(F)(F)F)CC1" ?
32.0

Subsequent entry: "Cc1cnc(N)c(C#Cc2cc(C(=O)Nc3ccc(CN4CCN(C)CC4)c(C(F)(F)F)c3)ccc2Cl)c1"
20.3

Another compound to look at: "CNCCOc1cnc(N)c(C#Cc2cc(C(=O)Nc3ccc(CN4CCN(C)CC4)c(C(F)(F)F)c3)ccc2Cl)c1"
28.7

"CN1CCN(Cc2ccc(NC(=O)c3cccc(C#Cc4cc(NC(=O)C5CC5)cnc4N)c3)cc2C(F)(F)F)CC1" ?
44.1

Record: "Cc1cc(C#Cc2cccnc2N)cc(C(=O)Nc2ccc(CN3CCN(C)CC3)c(C(F)(F)F)c2)c1"
24.0

Same question for "CN1CCN(Cc2ccc(NC(=O)c3ccc(Cl)c(C#Cc4cc(C5CC5)cnc4N)c3)cc2C(F)(F)F)CC1" please.
13.2

// same read-out, input: "CN1CCN(Cc2ccc(NC(=O)c3ccc(Cl)c(C#Cc4cc(COC(F)(F)F)cnc4N)c3)cc2C(F)(F)F)CC1"
37.2

Proceed to "COc1cnc(N)c(C#Cc2cc(C(=O)Nc3ccc(CN4CCN(C)CC4)c(C(F)(F)F)c3)ccc2Cl)c1"
24.9

Thanks! And "CC(=O)Nc1cnc(N)c(C#Cc2cccc(C(=O)Nc3ccc(CN4CCN(C)CC4)c(C(F)(F)F)c3)c2)c1" ?
33.2

Repeat with "CN(C)CC=CC(=O)Nc1cnc(N)c(C#Cc2cc(C(=O)Nc3ccc(CN4CCN(C)CC4)c(C(F)(F)F)c3)ccc2Cl)c1"
36.6

// query: "CN1CCN(Cc2ccc(NC(=O)c3ccc(Cl)c(C#Cc4cc(F)cnc4N)c3)cc2C(F)(F)F)CC1"
25.2

Would you kindly repeat that for "CN1CCN(Cc2ccc(NC(=O)c3ccc(Cl)c(C#Cc4cccnc4N)c3)cc2C(F)(F)F)CC1.Cl" ?
40.2

Entry to check: "CN1CCN(Cc2ccc(NC(=O)c3cccc(C#Cc4nc(CO)cnc4N)c3)cc2C(F)(F)F)CC1"
34.3
